- Tested on: IL-5-induced eosinophil degranulation
- Format: cell-based, human
- Run Conditions: various concentrations
Measurement Name: effect on IL-5-induced eosinophil degranulation

Below, 6 compounds whose answers are already recorded.
1) CCCC[C@@H](C=O)NC(=O)[C@H](CC(C)C)NC(=O)OCc1ccccc1 :: partially inhibited
2) CN(C)CCCn1cc(C2=C(c3c[nH]c4ccccc34)C(=O)NC2=O)c2ccccc21 [GF109203X] :: partially inhibited
3) O=c1c(-c2ccc(O)cc2)coc2cc(O)cc(O)c12 :: completely inhibited
4) CC(=O)c1c(O)c(C)c(O)c(Cc2c(O)c3c(c(C(=O)/C=C/c4ccccc4)c2O)OC(C)(C)C=C3)c1O :: completely inhibited
5) C[S+]([O-])c1ccc(-c2nc(-c3ccncc3)c(-c3ccc(F)cc3)[nH]2)cc1 (centres unmarked) :: completely inhibited
6) COc1cccc(-c2cc(=O)c3ccccc3o2)c1N :: partially inhibited

Here is the next item to consider.
Fill in: IL-5-induced eosinophil degranulation effect on IL-5-induced eosinophil degranulation for Cn1c2ccccc2c2c3c(c4c5ccccc5n(CCC#N)c4c21)CNC3=O = completely inhibited

Values from patent US20060165732A1
